// data source = paper PMC12040169

- METHOD SUMMARY: in vitro
- CONDITIONS: human, hela cells, % viability
Listing of recorded viability at 28.5 h, 10 µM by entry.
Expressed in %, but write only the number.

Some solved entries appear below for comparison.
Q: Would you kindly share the measured viability at 28.5 h, 10 µM for `CC(C)c1nccn1-c1ccc(NC(=O)Cn2ccnc2)cc1` ?
Result: 88.9

Q: Would you kindly share the measured viability at 28.5 h, 10 µM for `O=C(O)CSc1c(NC(=O)c2ccccc2)sc2c1CCCC2` ?
Result: 97.5

Q: Would you kindly share the measured viability at 28.5 h, 10 µM for `Cc1cnc2c(C(=O)Nc3cccc(CCc4ccncc4)c3)cnn2c1` ?
Result: 106

Q: Would you kindly share the measured viability at 28.5 h, 10 µM for `CC(=O)Nc1ccc(S(=O)(=O)Nc2ccc(C(=O)N3CCN(C)CC3)cc2)cc1` ?
Result: 93.1

Q: Would you kindly share the measured viability at 28.5 h, 10 µM for `Cn1ccnc1CN1C[C@@H]2CCCN2C[C@@H]1Cc1ccccc1` ?
Result: 91.1

New cases:
Q: Would you kindly share the measured viability at 28.5 h, 10 µM for CCCCCC(=O)N1CCc2cc(N3CC(CNC(C)=O)OC3=O)ccc21 (centres unmarked) ?
Result: 92.5

Q: Would you kindly share the measured viability at 28.5 h, 10 µM for `Cc1cc(=O)n2c(c1C#N)SCC2` ?
Result: 102

###

- METHOD SUMMARY: in vitro
- CONDITIONS: human, hela cells, % viability
Listing of recorded viability at 28.5 h, 10 µM by entry.
Expressed in %, but write only the number.

Q: Would you kindly share the measured viability at 28.5 h, 10 µM for O=C(CNS(=O)(=O)c1ccc(F)cc1)N1CCOCC1 [CBK042214] ?
Result: 97.7

Q: Would you kindly share the measured viability at 28.5 h, 10 µM for OC1(c2ccc(F)cc2)COC2(CCNCC2)C1 (stereo not drawn) [CBK284214] ?
Result: 93.6

New cases:
Q: Would you kindly share the measured viability at 28.5 h, 10 µM for CC(C)(C)OC(=O)N1CCN(c2ccccc2O)CC1 [CBK003878] ?
Result: 94.5

Q: Would you kindly share the measured viability at 28.5 h, 10 µM for O=C(O)CCNc1nc(Cc2ccccc2)nc2sc3c(c12)CCCC3 [CBK265345] ?
Result: 93.4

Q: Would you kindly share the measured viability at 28.5 h, 10 µM for O=C(O)c1cnc2ccc(F)cc2c1N1CCOCC1 [CBK287851] ?
Result: 82.5

Q: Would you kindly share the measured viability at 28.5 h, 10 µM for Fc1ccc(CCN2CCC(Oc3cncc(OCc4cccnc4)n3)C2)cc1 (stereo not drawn) [CBK084469] ?
Result: 97.8

Q: Would you kindly share the measured viability at 28.5 h, 10 µM for O=C(NCCN1CCc2ccccc21)C1CC2C=CC1O2 (stereo not drawn) [CBK283158] ?
Result: 96.2

Q: Would you kindly share the measured viability at 28.5 h, 10 µM for Cc1cc(OC(F)(F)F)ccc1S(=O)(=O)Nc1nc(CC(=O)O)cs1 [CBK000575] ?
Result: 87.8

###

Listing of recorded viability at 28.5 h, 10 µM by entry.
- METHOD SUMMARY: in vitro
- CONDITIONS: human, hela cells, % viability
Expressed in %, but write only the number.

Some solved entries appear below for comparison.
Q: Would you kindly share the measured viability at 28.5 h, 10 µM for `CC(=O)Oc1ccc(C(=O)Nc2ccc3c(c2)C(=O)N(CCC(=O)O)C3=O)cc1` ?
Result: 105

Q: Would you kindly share the measured viability at 28.5 h, 10 µM for `COc1cccc(NC(=O)N2CCN3C(=O)[C@H](Cc4ccc(O)cc4)NC(=O)[C@@H]3C2)c1` ?
Result: 99

Q: Would you kindly share the measured viability at 28.5 h, 10 µM for `COc1ccc(C2(CN3CCC(NC(=O)C4CC4)CC3)CC2)cc1` ?
Result: 101

Q: Would you kindly share the measured viability at 28.5 h, 10 µM for CCC(CC)C(=O)N1CCCC1c1nn(C)cc1-c1cc(C)no1 (stereo not shown) ?
Result: 84.5

Q: Would you kindly share the measured viability at 28.5 h, 10 µM for `Cn1c(SCC(=O)N2CCN(c3ccccc3)CC2)nnc1-c1cccc([N+](=O)[O-])c1` ?
Result: 105

New cases:
Q: Would you kindly share the measured viability at 28.5 h, 10 µM for `Cc1ccc(OCC(=O)Nc2ccc3c(c2)oc2ccccc23)cc1[N+](=O)[O-]` ?
Result: 100

Q: Would you kindly share the measured viability at 28.5 h, 10 µM for `Cc1cnc2[nH]c(C(F)(F)F)c(CN3CCSCC3)c2c1` ?
Result: 90

###

- METHOD SUMMARY: in vitro
- CONDITIONS: human, hela cells, % viability
Listing of recorded viability at 28.5 h, 10 µM by entry.
Expressed in %, but write only the number.

Q: Would you kindly share the measured viability at 28.5 h, 10 µM for `COc1cccc(NC(=O)c2ccc(-c3cc(C(F)(F)F)cc(C(F)(F)F)c3)nc2N(C)C)c1` ?
Result: 119

New cases:
Q: Would you kindly share the measured viability at 28.5 h, 10 µM for O=C(c1cc(F)c(F)cc1F)N1CCC2(CCCN(CCS(=O)(=O)c3ccccc3)C2)C1 (stereo not shown) ?
Result: 105

Q: Would you kindly share the measured viability at 28.5 h, 10 µM for `CC(C)(C)c1ccc(C(=O)N2CC(C(=O)O)C2)cc1` ?
Result: 101

Q: Would you kindly share the measured viability at 28.5 h, 10 µM for `N#CCCCN1CCC2(CC1)CN(C(=O)CO)c1ccccc12` ?
Result: 86

Q: Would you kindly share the measured viability at 28.5 h, 10 µM for CC(C)(C)C1CCc2c(sc(NC(=O)CCC(=O)O)c2C(=O)Nc2ccccc2Cl)C1 (stereo not shown) ?
Result: 87.2

Q: Would you kindly share the measured viability at 28.5 h, 10 µM for CC(C)(C)c1ccc(C(=O)N2CCN(C(=O)CN3CCOCC3)C2)cc1 [CBK051554C] ?
Result: 112

Q: Would you kindly share the measured viability at 28.5 h, 10 µM for `Cc1cc(Cl)ccc1CNC(=O)/C=C/c1ccc(C(C)C)cc1` ?
Result: 85.2

Q: Would you kindly share the measured viability at 28.5 h, 10 µM for Cc1cc(C2CCCN(C(=O)CC3OCCc4sccc43)C2)n[nH]1 (stereo not shown) ?
Result: 94.3

Q: Would you kindly share the measured viability at 28.5 h, 10 µM for `Cc1cc(C(=O)Nc2cccc(-c3nc4cc(Cl)ccc4o3)c2C)ccc1[N+](=O)[O-]` ?
Result: 91.8

Q: Would you kindly share the measured viability at 28.5 h, 10 µM for C=Cn1ncc(CN(Cc2ccc(C)o2)CC2CCCO2)c1C (stereo not shown) ?
Result: 101

Q: Would you kindly share the measured viability at 28.5 h, 10 µM for `O=S1(=O)N=C(Nc2ccc(S(=O)(=O)N3CCOCC3)cc2)c2ccccc21` ?
Result: 91

Q: Would you kindly share the measured viability at 28.5 h, 10 µM for CC(NC(=O)N1CCC1)c1cccc(S(N)(=O)=O)c1 (stereo not shown) ?
Result: 91.5

Q: Would you kindly share the measured viability at 28.5 h, 10 µM for `CCn1c2ccccc2c2cc(CN3CCN(Cc4cc(OC)cc(OC)c4)CC3)ccc21` ?
Result: 95.9

###

- Tested on: CTL2-GFP (C. trachomatis L2/434/Bu, GFP-expressing)
- Construct: L2/434/Bu, GFP-expressing
- METHOD SUMMARY: microbe, parasite or virus in culture
- Design: Intracellular C. trachomatis growth in HeLa cells, bulk GFP fluorescence relative to DMSO
- CONDITIONS: Chlamydia trachomatis, HeLa, 28.5 h; bulk GFP, mean of 2; read-out: % of control remaining
Listing of recorded activity at 5 µM by entry.
Expressed in %, but write only the number.

Q: Would you kindly share the measured activity at 5 µM for O=[N+]([O-])c1cc([N+](=O)[O-])c2cccnc2c1NNc1nncc2ccccc12 [CBK110409] ?
Result: 69

Q: Would you kindly share the measured activity at 5 µM for CC(=O)NC[C@H]1CN(c2ccc3c(c2)CCSC3)C(=O)O1 [CBK018505] ?
Result: 29.2

Q: Would you kindly share the measured activity at 5 µM for CC(C)c1ccc(/C=C/C(=O)NCc2ccc(NS(C)(=O)=O)cc2)cc1 [CBK161512] ?
Result: 96.2

Consider now this further compound.
Q: Would you kindly share the measured activity at 5 µM for CCc1cc(Br)ccc1S(=O)(=O)NC(CC)COC (stereo not drawn) [CBK045265] ?
Result: 114

###

- METHOD SUMMARY: in vitro
- CONDITIONS: human, hela cells, % viability
OBSERVABLE: viability at 28.5 h, 10 µM
In your response, put the unit directly after the numeric value.

Some solved entries appear below for comparison.
Q: Would you kindly share the measured viability at 28.5 h, 10 µM for `Cc1ccc(NC(=O)CN2C(=O)c3ccccc3C2=O)c(O)c1` ?
Result: 88.2%

Q: Would you kindly share the measured viability at 28.5 h, 10 µM for Cc1ccccc1NC(=O)CC1c2ccccc2CC(C)(C)N1C (stereo not drawn) ?
Result: 87.4%

Consider now this further molecule.
Q: Would you kindly share the measured viability at 28.5 h, 10 µM for `CS(=O)(=O)Nc1ccc(-c2cc(F)cc(F)c2)c2ccccc12` ?
Result: 89.8%
